test system: Escherichia coli TOP10; assay: shrunken log2 fold change of peptide-encoding DNA abundance (4.5 h post-induction vs induction); higher = less antimicrobial activity (less host growth inhibition); conditions: time post-induction: 4.5 h; library: site-saturation at positions 5, 18, 19, 20
property.name: shrunken log2 fold change

RRIRIRPPRLPRPRPRPCNGPRP | -0.0882

// shrunken log2 fold change lookup, key: RRIRQRPPRLPRPRPRPWLKPRP
0.0706

// shrunken log2 fold change lookup, key: RRIRCRPPRLPRPRPRPIYWPRP
-0.815

* * *

tested on: Escherichia coli TOP10; assay: shrunken log2 fold change of peptide-encoding DNA abundance (4.5 h post-induction vs induction); higher = less antimicrobial activity (less host growth inhibition); settings: time post-induction: 4.5 h; library: site-saturation at positions 5, 18, 19, 20
Label -1 if shrunken log2 fold change falls below 0.1; label 1 in every other case.

RRIRQRPPRLPRPRPRPLQCPRP | -1
RRIRARPPRLPRPRPRPPMMPRP | 1
RRIRGRPPRLPRPRPRPHYIPRP | -1
RRIRSRPPRLPRPRPRPTYYPRP | -1
RRIRWRPPRLPRPRPRPFHHPRP | -1

Hi team, for RRIRARPPRLPRPRPRPDFCPRP , is the recorded shrunken log2 fold change at or above 0.1?
1

Hi team, for RRIRSRPPRLPRPRPRPSNRPRP , is the recorded shrunken log2 fold change at or above 0.1?
-1

Hi team, for RRIRLRPPRLPRPRPRPHLNPRP , is the recorded shrunken log2 fold change at or above 0.1?
1

* * *

tested on: Escherichia coli TOP10; experiment: shrunken log2 fold change of peptide-encoding DNA abundance (4.5 h post-induction vs induction); higher = less antimicrobial activity (less host growth inhibition); conditions: time post-induction: 4.5 h; library: site-saturation at positions 5, 18, 19, 20
property.name: shrunken log2 fold change
# respond with the number and nothing more

RRIRVRPPRLPRPRPRPSEYPRP | -0.418
RRIRRRPPRLPRPRPRPCITPRP | -0.846
RRIRIRPPRLPRPRPRPNYYPRP | -1.07
RRIRVRPPRLPRPRPRPYQKPRP | -0.0384
RRIRYRPPRLPRPRPRPNGRPRP | -0.311
RRIRPRPPRLPRPRPRPLIRPRP | -0.218

// shrunken log2 fold change lookup, key: RRIRSRPPRLPRPRPRPCSAPRP
-0.0813

// shrunken log2 fold change lookup, key: RRIRERPPRLPRPRPRPLWDPRP
0.108

// shrunken log2 fold change lookup, key: RRIRIRPPRLPRPRPRPHFKPRP
-0.368

// shrunken log2 fold change lookup, key: RRIRIRPPRLPRPRPRPVRNPRP
-0.0578

* * *

test system: Escherichia coli TOP10; assay: shrunken log2 fold change of peptide-encoding DNA abundance (4.5 h post-induction vs induction); higher = less antimicrobial activity (less host growth inhibition); conditions: time post-induction: 4.5 h; library: site-saturation at positions 5, 18, 19, 20;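 note: peptides expressed intracellularly from a pBAD plasmid library in pooled LB shake-flask culture, induced with 0.3% L-arabinose, DNA abundance read by NGS, three biological replicates, DESeq2 with apeglm shrinkage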
Kindly note that classification relies on shrunken log2 fold change with these boundaries: low group: < -0.05; middle group: ≥ -0.05 and < 0.1; high group: ≥ 0.1

Worked examples follow.
RRIRYRPPRLPRPRPRPNVAPRP | middle group
RRIRERPPRLPRPRPRPDYPPRP | middle group
RRIRQRPPRLPRPRPRPHIHPRP | low group
RRIRQRPPRLPRPRPRPTPDPRP | high group
RRIRCRPPRLPRPRPRPMRSPRP | high group
RRIRMRPPRLPRPRPRPMDRPRP | middle group
RRIRKRPPRLPRPRPRPLYHPRP | low group
RRIRTRPPRLPRPRPRPSDMPRP | high group
RRIRYRPPRLPRPRPRPEFGPRP | high group
RRIRERPPRLPRPRPRPMGSPRP | middle group

Category lookup for the sequence RRIRKRPPRLPRPRPRPMHYPRP
middle group

Category lookup for the sequence RRIRERPPRLPRPRPRPYACPRP
low group

Category lookup for the sequence RRIRWRPPRLPRPRPRPGAPPRP
high group

Category lookup for the sequence RRIRVRPPRLPRPRPRPVVFPRP
middle group

Category lookup for the sequence RRIRCRPPRLPRPRPRPEYHPRP
low group

Category lookup for the sequence RRIRKRPPRLPRPRPRPAGIPRP
high group

Category lookup for the sequence RRIRGRPPRLPRPRPRPKGHPRP
high group

Category lookup for the sequence RRIRCRPPRLPRPRPRPNHFPRP
low group

Category lookup for the sequence RRIRVRPPRLPRPRPRPFMHPRP
low group

Category lookup for the sequence RRIRHRPPRLPRPRPRPQSFPRP
middle group

Category lookup for the sequence RRIRERPPRLPRPRPRPFGDPRP
middle group

Category lookup for the sequence RRIRCRPPRLPRPRPRPYEPPRP
low group

Category lookup for the sequence RRIRRRPPRLPRPRPRPAQLPRP
high group

Category lookup for the sequence RRIRKRPPRLPRPRPRPLFHPRP
middle group
